Origin of values: ChEMBL document CHEMBL3988442

Give measured Percent Effect for each item. Keep answers brief.
study target: Proteasome subunit beta (Trypanosoma cruzi) (UniProt O96673)
Sequence (whole entry): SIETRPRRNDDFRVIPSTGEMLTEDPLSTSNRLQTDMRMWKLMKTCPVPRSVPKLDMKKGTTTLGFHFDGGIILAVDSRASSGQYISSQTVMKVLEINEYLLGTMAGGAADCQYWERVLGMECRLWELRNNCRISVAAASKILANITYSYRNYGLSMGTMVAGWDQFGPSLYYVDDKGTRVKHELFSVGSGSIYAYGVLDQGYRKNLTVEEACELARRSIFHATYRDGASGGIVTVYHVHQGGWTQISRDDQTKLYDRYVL
protocol description: Trypanosoma cruzi proteasome chymotrypsin-like activity (TcProtChymo) assay. Also: in the data most compounds retested in dose-response had high values.
Format: functional
Set-up: scale not given: direction of the effect not stated beside the values
condition details: 9.37 µM
Give bare numbers, in %.

CCc1nc(C)c(C(=O)NCCN2CCC(C)CC2)s1: -6.84

Hey, quick one: what's Percent Effect for each of these?
1. O=C(NCCc1coc(-c2ccc(F)cc2)n1)NC1CCC(O)CC1 (stereo unspecified)
2. CCc1nccn1C1CCCN(C(=O)Cc2ccc(OC)c(F)c2)C1 (stereo unspecified)
3. Cc1cccnc1CNCC1(O)CCCN(CC2CCCCC2)C1=O (stereo unspecified)
4. Cc1noc(C2CCN(C(=O)c3ccc(N(C)C)nc3)CC2)n1
5. CN(CC(=O)N1CCCN(Cc2cscn2)CC1)c1cnccn1

Reply:
1. 15.7
2. 7.38
3. 3.25
4. -0.0853
5. 0.351

---

study target: AMP-activated protein kinase, AMPK (Homo sapiens) (UniProt P54646+O43741+P54619+Q9UGJ0+Q9Y478+Q13131+Q9UGI9)
protocol description: AMP-dependent Kinase enzyme assay. An in vitro enzyme assay that detects ADP turnover that is directly proportional to AMPK activity. This uses naive AMPK that is activated during the assay with MK-8722
Type: functional
Parameters: scale not given: direction of the effect not stated beside the values
condition details: 30 µM
Give measured Percent Effect for each item. Keep answers brief.
One number for each entry, in %.

Some molecules with recorded Percent Effect:
O=C(COc1ccc(-n2cccn2)nn1)N1CCCC1: 3.54
CCN(C)Cc1cccc(CNC(=O)CSCc2ccncc2)c1: -11.3
CC1COCCN1C(=O)Cc1cc(Cl)c2c(c1)OCCCO2 (stereo not given): 7.18
CCC(C(=O)N(Cc1ccccc1OC)C1CC1)n1cccn1 (stereo not given): 0.528
CCc1nc(C)c(CN2CCOC(CCCC(C)C)C2)[nH]1 (stereo not given): -6.7

Fill in Percent Effect for each of the 4 molecules listed.
1. Cc1cc(C(=O)NCCC2CCN(C)CC2)ccc1N(C)S(C)(=O)=O
2. CCc1ncc2c(n1)CN(c1nnc(C)c(C)c1C#N)CC2
3. CCn1cc(S(=O)(=O)NCc2ccnc(-n3ccnc3)c2)cn1
4. CCCC1(CO)CCCN(C(=O)CN2CCN(CC)CC2)C1 (stereo not given)

Reply:
1: 6.31; 2: -14.7; 3: -0.563; 4: -3.5

I need Percent Effect for every entry listed below, if you could help.
1. CC(C)(C)NC(=O)CN1CCCNCC1
2. CCc1cnc(N)nc1NCCC(=O)NC1CCCCC1
3. CCc1nnc(CNC(=O)CCC2CCCCN2C)s1 (stereo not given)
4. CSC1(CNC(=O)N(C)Cc2sccc2C)CCOCC1
5. CNC(=O)Cc1ccc(NC(=O)NCC(C)c2ncc(C)s2)cc1 (stereo not given)
6. CC(C)Cn1ncc(C(=O)NS(=O)(=O)c2ccccc2)c1C1CC1
7. CC1(C(N)=O)CN(S(=O)(=O)c2cccc(F)c2)CCO1 (stereo not given)

Reply:
1: -0.0888; 2: -4.74; 3: -10.9; 4: -7.94; 5: -3.25; 6: 4.86; 7: 3.77

Need Percent Effect for each of these molecules.
1. COC(=O)C1CN(Cc2ccn(-c3ccc(F)cc3)n2)CCO1 (stereo not given)
2. CN(Cc1cn(CC2CCNCC2)nn1)CC1CCCCO1 (stereo not given)
3. O=C(c1ccncc1)N1CCC(Oc2cccc(C(F)(F)F)c2)CC1
4. CC(=O)c1ccc(-c2cnn(CC(=O)Nc3ccnn3C)c2)nc1
5. Cc1cc(NC(=O)CN2CCN(C3CCCC3)C(=O)C2)nn1C

Reply:
[-6.99, 7.46, -1.49, 6.15, 8.93]

Give me Percent Effect for each of these molecules, listed below.
1. CCc1nc(C)c(CN2CCOC(Cc3ccccc3Cl)C2)[nH]1 (stereo not given)
2. COC(=O)c1ccoc1CN(C)CC(=O)NC1CC1
3. c1csc(N2CCCN(c3ncnc4sccc34)CC2)n1
4. Cc1cc(N(C)C)nc(N2CCn3c(C)nnc3C2)n1

Reply:
1. -2.77
2. -3.6
3. 21.9
4. -2.14
